The origin of these recorded values is PubChem BioAssay (NCATS).

- method_summary: Quantitative High-Throughput drug screen in 47 multiple myeloma cell lines against the NCATS MIPE library collection: KMS28PE_JCRB cell viability assay (AID 1918983); also: nearly all actives have a fitted effect of over 35% in size
- condition_summary: KMS28PE multiple myeloma viability, CellTiter-Glo ATP, 48 h; series mostly up to 45.8 µM
Inconclusive results are not listed. Calls of active or inactive are those of the source. Calls follow the shape of the dose curve; as a rule, active = well fitted cell-killing curve with a large enough effect; inconclusive = small, poorly fitted or top-dose-only effect, or effect the other way; inactive = no such curve, though single readings can be large or run the other way.
Outcomes: active, inactive

* Fc1ccc(C(OCCN2CCN(CCCc3ccccc3)CC2)c2ccc(F)cc2)cc1 | active
* CNCC(O)c1ccc(O)cc1 (configuration not stated) | inactive
* Cn1c(CCCC(=O)O)nc2cc(N(CCCl)CCCl)ccc21 | active
* CNC(=O)c1ccc(N2C(=S)N(c3ccc(C#N)c(C(F)(F)F)c3)C(=O)C23CCC3)cc1F | inactive
* COC1(CS(=O)c2ccccc2)CCN(CCc2c[nH]c3ccc(F)cc23)CC1 (configuration not stated) | active
* COc1ccc(C(=O)c2c(C)n(CCN3CCOCC3)c3ccccc23)cc1 | inactive
* COC[C@@H](NC(C)=O)C(=O)NCc1ccccc1 | inactive
